B1: TPR 5TU (parent)
chain: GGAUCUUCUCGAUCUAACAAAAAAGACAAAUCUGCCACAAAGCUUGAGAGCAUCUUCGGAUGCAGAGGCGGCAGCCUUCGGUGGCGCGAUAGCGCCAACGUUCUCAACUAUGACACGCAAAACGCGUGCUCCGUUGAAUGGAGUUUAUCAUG

# Variants of: B1
# assay-remarks: polymerase ribozyme fitness, log enrichment relative to wild type (log ratio); higher = more active; in vitro selection for triplet polymerase activity
Variants at the floor of the assay were thinned out.
Could you label it Y if measured polymerase ribozyme fitness (log ratio) is -2 or higher, and N otherwise?

alteration | group
G65U A66C U77A A147C | N
A12U G50A C85A G88A A121G | N
C32A C35U C57G G62A U90C C103G C116U C149U | N
C63A A120U G124C | N
A137G U145G | Y
G34A A41G A120U | Y
G59A U82C U134A | N
G86C C131U | N
C14G A23G A73G G84U A122U | N
A40U G62U C72G G80C U82C A138U | N
A16C A22U G62A G74A G81C A106G G141C | N
G83U C103U | Y
A52G G84A C118U C123G | Y
A22U C69G C75U C93U U101C U127A | N
A28U A66C G83U A122G | N
G25U A41G U53G C54U G92C G124A U151C | N
C79G A122C G140A | N
C72U C96G U127C C131U G140U U151A | N
A20C C93G | N
C57A G136A | Y
A17U G59U C93U C114G | N
C93A U148G G152U | N
A3C A12U U56A C93A A98U A107G C129U | N
U6A C85U G140C | N
G86A A89U C105U U134A | N
A16U U44G G48A C87U U102G C131U C132G | N
G11U C54A | N

Origin of measurements: the RNAGym collection of RNA variant scans (doi:10.1073/pnas.2313332121)
